- Tested on: Gossypium hirsutum
- method_summary: Post-emergence phytotoxicity against Gossypium hirsutum (cotton) assessed as mortality per 10 acre
- Format: organism-based
- condition_notes: in vivo
metric: ED20 (gAi)
Provide the reading as a plain figure in gAi.

# annotated cases, reported ED20 shown
{"columns": ["chemical_string", "metric", "val"],
 "data": [
  ["COc1cc(OC)nc(Sc2cccc(Cl)c2C(=O)O)n1", "ED20", 50],
  ["COc1cc(OC)nc(Oc2cccc(C)c2C(=O)O)n1", "ED20", 0.4],
  ["COc1cc(OC)nc(Oc2cccc(Br)c2C(=O)O)n1", "ED20", 0.2]
]}

Input: Could you tell me which ED20 is on file for `COc1cc(OC)nc(Oc2cccc(Cl)c2C(=O)O)n1` ?
Output: 0.2

Input: Could you tell me which ED20 is on file for `COc1cc(OC)nc(Oc2ccccc2C(=O)O)n1` ?
Output: 12

Input: Could you tell me which ED20 is on file for `COc1cc(OC)nc(Sc2cccc(C)c2C(=O)O)n1` ?
Output: 100

Input: Could you tell me which ED20 is on file for `COc1cc(OC)nc(Sc2cccc(Br)c2C(=O)O)n1` ?
Output: 50

###

- System: Glycine max
- method_summary: Pre-emergence phytotoxicity against Glycine max (soybean) assessed as mortality at 6.3 g a.i/10 a
- Format: organism-based
- condition_notes: in vivo, other
metric: Activity

# annotated cases, reported Activity shown
{"columns": ["chemical_string", "val"],
 "data": [
  ["COc1cc(OC)nc(Sc2cccc(Br)c2C(=O)O)n1", "Toxic"],
  ["COc1cc(OC)nc(Oc2cccc([N+](=O)[O-])c2C(=O)O)n1", "Non-toxic"],
  ["COc1cc(OC)nc(Oc2cccc(C)c2C(=O)O)n1", "Toxic"],
  ["COc1cc(OC)nc(Oc2cccc(OC(F)F)c2C(=O)O)n1", "Toxic"],
  ["COc1cc(OC)nc(Sc2cccc(C(F)(F)F)c2C(=O)O)n1", "Toxic"]
]}

Input: Could you tell me which Activity is on file for `COc1cc(OC)nc(Sc2cccc(OC)c2C(=O)O)n1` ?
Output: Toxic

Input: Could you tell me which Activity is on file for `COc1cc(OC)nc(Oc2cccc(C(F)(F)F)c2C(=O)O)n1` ?
Output: Toxic

Input: Could you tell me which Activity is on file for `COc1cc(OC)nc(Sc2cccc(I)c2C(=O)O)n1` ?
Output: Toxic

Input: Could you tell me which Activity is on file for `COc1cc(OC)nc(Sc2cccc(F)c2C(=O)O)n1` ?
Output: Non-toxic

Input: Could you tell me which Activity is on file for `COc1cc(OC)nc(Sc2cccc(Cl)c2C(=O)O)n1` ?
Output: Non-toxic

Input: Could you tell me which Activity is on file for `COc1cc(OC)nc(Oc2ccccc2C(=O)O)n1` ?
Output: Non-toxic

Input: Could you tell me which Activity is on file for `CCc1cccc(Oc2nc(OC)cc(OC)n2)c1C(=O)O` ?
Output: Toxic

###

- Test system: Glycine max
- method_summary: Pre-emergence phytotoxicity against Glycine max (soybean) assessed as mortality at 1.6 g a.i/10 a
- Type: organism-based
- condition_notes: in vivo, other
metric: Activity

# annotated cases, reported Activity shown
{"columns": ["chemical_string", "target_or_system", "Activity"],
 "data": [
  ["COc1cc(OC)nc(Sc2cccc(Br)c2C(=O)O)n1", "Glycine max", "Toxic"],
  ["COc1cc(OC)nc(Sc2cccc(OC)c2C(=O)O)n1", "Glycine max", "Toxic"],
  ["COc1cc(OC)nc(Oc2cccc(F)c2C(=O)O)n1", "Glycine max", "Toxic"],
  ["COc1cc(OC)nc(Sc2cccc([N+](=O)[O-])c2C(=O)O)n1", "Glycine max", "Non-toxic"],
  ["CCOc1cccc(Oc2nc(OC)cc(OC)n2)c1C(=O)O", "Glycine max", "Non-toxic"]
]}

Input: Could you tell me which Activity is on file for `COc1cc(OC)nc(Sc2cccc(C(F)(F)F)c2C(=O)O)n1` ?
Output: Non-toxic

Input: Could you tell me which Activity is on file for `COc1cc(OC)nc(Oc2cccc(C(F)(F)F)c2C(=O)O)n1` ?
Output: Toxic

Input: Could you tell me which Activity is on file for `COc1cc(OC)nc(Oc2cccc(OC(F)F)c2C(=O)O)n1` ?
Output: Toxic

###

- Test system: Ipomoea lacunosa
- method_summary: Pre-emergence herbicidal activity against Ipomoea lacunosa assessed as mortality per 10 acre
- Type: functional
ED90: recorded values
Provide the reading as a plain figure in gAi.

{"columns": ["chemical_string", "ED90 [gAi]"],
 "data": [
  ["COc1cc(OC)nc(Sc2cccc(Br)c2C(=O)O)n1", 25]
]}

Input: Could you tell me which ED90 is on file for `COc1cc(OC)nc(Oc2cccc(Cl)c2C(=O)O)n1` ?
Output: 25

Input: Could you tell me which ED90 is on file for `COc1cc(OC)nc(Oc2cccc(Br)c2C(=O)O)n1` ?
Output: 25

Input: Could you tell me which ED90 is on file for `COc1cc(OC)nc(Sc2cccc(C)c2C(=O)O)n1` ?
Output: 50

Input: Could you tell me which ED90 is on file for `COc1cc(OC)nc(Sc2cccc(Cl)c2C(=O)O)n1` ?
Output: 25

###

- Test system: Persicaria nodosa
- method_summary: Post-emergence herbicidal activity against Persicaria nodosa assessed as mortality per 10 acre
- Type: functional
metric: ED90

Input: Could you tell me which ED90 is on file for `COc1cc(OC)nc(Sc2cccc(Br)c2C(=O)O)n1` ?
Output: 1.5 gAi

Input: Could you tell me which ED90 is on file for `COc1cc(OC)nc(Oc2ccccc2C(=O)O)n1` ?
Output: 12 gAi

Input: Could you tell me which ED90 is on file for `COc1cc(OC)nc(Oc2cccc(Cl)c2C(=O)O)n1` ?
Output: 0.2 gAi

Input: Could you tell me which ED90 is on file for `COc1cc(OC)nc(Oc2cccc(C)c2C(=O)O)n1` ?
Output: 0.4 gAi

Input: Could you tell me which ED90 is on file for `COc1cc(OC)nc(Sc2cccc(Cl)c2C(=O)O)n1` ?
Output: 1.5 gAi

Input: Could you tell me which ED90 is on file for `COc1cc(OC)nc(Oc2cccc(Br)c2C(=O)O)n1` ?
Output: 0.2 gAi

###

- Tested on: Persicaria nodosa
- method_summary: Pre-emergence herbicidal activity against Persicaria nodosa assessed as growth inhibition at 25 g a.i/10 a
- Format: functional, organism-based
The source made the active and inactive calls. The calls are words filed in the database; no cut-off is given here.
Choose one outcome from this list and give only that: active, inactive

For orientation, consider the following solved cases.
{"columns": ["chemical_string", "answer_label"],
 "data": [
  ["COc1cc(OC)nc(Oc2cccc(I)c2C(=O)O)n1", "active"],
  ["COc1cc(OC)nc(Oc2cccc(OC(C)C)c2C(=O)O)n1", "active"],
  ["COC(=O)c1cccc(Oc2nc(OC)cc(OC)n2)c1C(=O)O", "active"],
  ["COc1cc(OC)nc(Nc2cccc(Cl)c2C(=O)O)n1", "inactive"],
  ["CCCOc1cccc(Oc2nc(OC)cc(OC)n2)c1C(=O)O", "active"]
]}

Input: Answer briefly: the call reported for `CNc1ccc(Oc2nc(OC)cc(OC)n2)c(C(=O)O)c1` in this assay.
Output: active

###

mortality at 63 g/ha: recorded values
- Test system: Xanthium strumarium
- method_summary: Post-emergence herbicidal activity against Xanthium strumarium (cocklebur) assessed as mortality at 6.3 g a.i/10 a applied 11 days after germination as foliar spray
- Format: functional
- condition_notes: 264 h

Input: Could you tell me which mortality at 63 g/ha is on file for `COc1cc(OC)nc(Oc2cccc(C(F)(F)F)c2C(=O)O)n1` ?
Output: > 90%

Input: Could you tell me which mortality at 63 g/ha is on file for `COc1cc(OC)nc(Oc2cccc(I)c2C(=O)O)n1` ?
Output: > 90%

Input: Could you tell me which mortality at 63 g/ha is on file for `COC(=O)c1cccc(Oc2nc(OC)cc(OC)n2)c1C(=O)O` ?
Output: < 5%

Input: Could you tell me which mortality at 63 g/ha is on file for `COc1cc(OC)nc(Oc2cccc(Br)c2C(=O)O)n1` ?
Output: > 90%

###

- System: Amaranthus retroflexus
- method_summary: Pre-emergence herbicidal activity against Amaranthus retroflexus assessed as growth inhibition at 25 g a.i/10 a
- Format: functional, organism-based
Active and inactive are the calls of the source. The rule behind the calls is not given here.
Choose one outcome from this list and give only that: class 1 for active, class 0 for inactive

For orientation, consider the following solved cases.
{"columns": ["chemical_string", "answer_label"],
 "data": [
  ["CCOCCOc1cccc(Oc2nc(OC)cc(OC)n2)c1C(=O)O", "class 1"],
  ["COc1cc(OC)nc(Oc2cccc(OC)c2C(=O)O)n1", "class 1"],
  ["COc1cc(OC)nc(Oc2cccc(F)c2C(=O)O)n1", "class 1"],
  ["COc1cc(OC)nc(Oc2cccc(C(C)=O)c2C(=O)O)n1", "class 1"],
  ["COc1cc(OC)nc(Oc2cccc(N)c2C(=O)O)n1", "class 1"],
  ["COc1cc(OC)nc(Oc2cccc(SC)c2C(=O)O)n1", "class 1"],
  ["COc1ccc(Oc2nc(OC)cc(OC)n2)c(C(=O)O)c1", "class 1"],
  ["COc1cc(OC)nc(Oc2cccc(I)c2C(=O)O)n1", "class 1"]
]}

Input: Answer briefly: the call reported for `COc1cc(OC)nc(Oc2c(C)cccc2C(=O)O)n1` in this assay.
Output: class 1

Input: Answer briefly: the call reported for `COc1cc(OC)nc(Oc2cc(N)ccc2C(=O)O)n1` in this assay.
Output: class 0

Input: Answer briefly: the call reported for `COc1cc(OC)nc(Oc2cccc(C(F)(F)F)c2C(=O)O)n1` in this assay.
Output: class 1

Input: Answer briefly: the call reported for `COc1cc(OC)nc(Nc2cccc(Cl)c2C(=O)O)n1` in this assay.
Output: class 0

Input: Answer briefly: the call reported for `COc1cc(OC)nc(Oc2ccc(F)cc2C(=O)O)n1` in this assay.
Output: class 1

Input: Answer briefly: the call reported for `CCOc1cccc(Oc2nc(OC)cc(OC)n2)c1C(=O)O` in this assay.
Output: class 1
